test system: PPARg:RXRa DBDmut IVT, anti-RXR (DBD mutation: RXRa K156A/R161A, NR concentration 270 nM, RXRa partner concentration 90 nM); assay: PBM binding z-score (relative to random genomic background probes); higher = stronger binding; sequences stand for … in GC…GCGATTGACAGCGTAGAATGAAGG
readoutLabel: PBM binding z-score

ACTAGCAGGCCAAGTTTGGGTCACTCACACAAAG : 0.874
CCTACTGGGCCTCGAAAGGTCATTGATTCAGTGA : 2.57
CCTGCAAGGTCAATGGTCAGCTAAAGCAGCTCGC : 2.93
ACAAACAGGTGAGTGAAGGTAACTCAGCTGGACG : 1.21
CGAACGAGGGCATGAGTGGATAGCAAATGCCGAT : 2.74
TTACCAAGGTGAGCTGAGCTCGTTGATCCAACTC : 0.946
GCGACAGGGGCATCAGCAGGTTACCATAACTTAA : 0.0717
CATACTAGGTCACAGAGGTCAAAGTCCGTGCGTA : 7.7
GCGGACAGGTGAAACGCAGGTAACTCAGGGTGGC : 1.08
CCTACTGGGCCATAAGGTCATTGATATCAACGTT : 4.4
GCTAGTTGATCAGTAAAAGGTCACACACCGGTCG : 0.158
GCTTACGGGTCAGAGGTTATAGCATGAATAGAAT : 2.54
CCTAGTTGGTCAGGAGGTCACACATCGGATATGA : 1.56
CGAACTCGGTCATCCAGGACAGTGAATACATTGA : 3.58
CAAACTAGGTCACAGGAAGGTCAAAGTCCGCATG : 8.64
AACTCTAGGTAACCAAGTTCAGTGAATGCCGAAC : 3.59
CGTCCAAGGTCATAGAAGGTCAGTGAAGACAGAT : 3.2
ACTAGTTGATCAGCTGAGGTCACACACAATTCGG : 0.672
CCTTACGTGTCACTCCAGGTTATAGCATCGGAGT : 1.84
CGACCAAGGTCAAAGGTCAGTGAAGAGATGACGG : 4.11
GCTAGCAGGCCATCTGGGTCACTCAATGACGGGC : 3
GGAACGAGGGCCTTCGAGTTGATAGCATGGCGAT : 0.104
CGAAGTAGGTCATCCAGGACAGTGAATACATTGA : 8.36
CCTTACCGGTCACTCCAGGTTATAGCATCGGAGT : 1.13
GCTAGTTGGTCAGTAAAAAGTCACACACCGGTCG : 0.793
TCAAATAGGTAAATGCTAGGTGAAAGTCCGATCT : 3.54
CCAGACGGGTGAGAAGGTAACTCAGCCTCGATTA : 0.114
CCGACTCGGGCAAAGGTTACCATACTCAGTACGA : 1.5
GCTGGGAGGACAAGGTCAGAGCTTTGTCCGTAGA : 0.282
TAGCATAGGTCATGGGCCAGTATACCACGCGAAC : 0.625
CCTATTAGTTGACCATAGGGGCAACCGAAGCTCG : 0.502
CCTACTGGGCCAAGGCCATTGATCAGTCAAAGCA : 2.95
TAGCCTAGGTCATTCCGGGGCCAGTATAGAAAGC : 1.04
CCGACTGGGGCATAAGGATACCATAAGCCAGCCC : 2.56
TCATATAGGGAATACAGGTGAAAGTCGGCATCTA : 3.35
TGAATGAGGTTATAAGCTCAGGGAACGTTGCAAA : 1.28
CGAACTGGGTCATTGACAGGACAGTGAATAGTAA : 7.7
TAGCCTAGATCATTCAGGGGCCAGTATAGAAAGC : 1.21
TCTCGGAGGACACGAAGGACAGAGCTTTCCAGAG : 1.14
CGAACTAGGTCATGGACAGGACAGTGAATAGTAA : 8.1
